assay target: Albumin (Bos taurus) (UniProt P02769)
Sequence (P02769 whole entry, looked up): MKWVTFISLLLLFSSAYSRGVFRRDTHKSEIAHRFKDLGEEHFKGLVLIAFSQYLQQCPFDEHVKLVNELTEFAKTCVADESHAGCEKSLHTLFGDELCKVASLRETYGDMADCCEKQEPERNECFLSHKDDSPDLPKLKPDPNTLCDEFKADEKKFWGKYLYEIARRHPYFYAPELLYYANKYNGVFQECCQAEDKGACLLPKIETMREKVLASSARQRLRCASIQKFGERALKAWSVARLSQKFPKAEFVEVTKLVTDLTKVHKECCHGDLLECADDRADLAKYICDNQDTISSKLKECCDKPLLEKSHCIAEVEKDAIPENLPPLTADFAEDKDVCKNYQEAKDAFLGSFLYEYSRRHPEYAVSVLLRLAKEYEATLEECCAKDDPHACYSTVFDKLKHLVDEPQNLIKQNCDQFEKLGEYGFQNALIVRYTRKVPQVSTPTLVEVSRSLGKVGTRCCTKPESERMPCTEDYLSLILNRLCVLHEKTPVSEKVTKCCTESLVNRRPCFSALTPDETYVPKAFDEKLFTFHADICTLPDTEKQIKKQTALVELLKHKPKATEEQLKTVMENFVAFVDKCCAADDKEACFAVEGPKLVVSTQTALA
method notes: bovine serum albumin binders on microarray, profiling panel, artefact control for SMM control protein annotation, biochemical, small-molecule microarray, Alexa647 label, 635/667 nm fluorescence (AID 1118);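 note: score merges 667 nm emission intensity and signal-to-noise per printed compound spot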
test parameters: BSA-A647 binding, fluorescence 635 nm, higher = more signal
Rule: composite z-score under 0.7 gives not fulfilled, otherwise fulfilled.

Worked examples follow.
# compound, class name
rows = [
    ("COc1ccc(C#Cc2ccc3c(c2)[C@]2(C(=O)N3)[C@H](C(=O)N3CCc4cc(OC)c(OC)cc4C3)[C@H]3C(=O)O[C@H](c4ccccc4)[C@H](c4ccccc4)N3[C@@H]2c2ccc(O)cc2)cc1", "fulfilled"),
    ("CC(C)C(O)C1C=CC2C(=O)N(C)C(=O)C2N1Nc1ccccc1 (stereo unspecified)", "fulfilled"),
    ("COC(=O)[C@@]1(Cc2ccccc2)[C@H]2c3cc(C(=O)N4CCCC4)n(Cc4ccsc4Br)c3C[C@H]2CN1C(=O)c1ccccc1", "fulfilled"),
]

Reported composite z-score reaches at least 0.7 for C=CCC(OC(C)=O)[C@@H]1[C@@H](N(Cc2cc3ccccc3o2)C(=O)Cc2ccc(F)cc2)c2cc(OCCCO)ccc2N1C(=O)c1ccc2ccccc2n1 (stereo partly specified) ? not fulfilled

Reported composite z-score reaches at least 0.7 for `COCCOC(=O)N1C(=O)[C@@]2(c3cc(C#CC4=CCCCC4)ccc31)[C@H](c1ccccc1OCCO)N1[C@H](c3ccccc3)[C@H](c3ccccc3)OC(=O)[C@H]1[C@@H]2C(=O)N1CCc2cc(OC)c(OC)cc2C1` ? not fulfilled
